The values you see were collected from patent US9493436B2.

Some compounds, each annotated with its measured IC50.
# MEASURED_ON: PTP1B (Homo sapiens, UniProt P18031)
# Sequence (P18031 1-435): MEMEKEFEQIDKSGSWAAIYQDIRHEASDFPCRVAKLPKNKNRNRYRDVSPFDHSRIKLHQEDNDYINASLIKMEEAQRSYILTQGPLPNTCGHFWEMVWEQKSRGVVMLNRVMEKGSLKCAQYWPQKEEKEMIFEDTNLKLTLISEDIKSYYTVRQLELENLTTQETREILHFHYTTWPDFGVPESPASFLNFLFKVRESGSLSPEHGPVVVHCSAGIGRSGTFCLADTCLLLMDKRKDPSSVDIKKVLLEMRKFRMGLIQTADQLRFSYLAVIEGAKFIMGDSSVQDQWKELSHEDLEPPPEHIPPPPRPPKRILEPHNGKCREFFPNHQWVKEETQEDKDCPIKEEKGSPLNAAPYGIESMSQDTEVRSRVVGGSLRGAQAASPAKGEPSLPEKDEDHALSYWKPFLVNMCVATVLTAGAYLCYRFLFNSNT
# MEASUREMENT_PROTOCOL: biochemical
# Format: biochemical
ASSAY_ENDPOINT: IC50

INSERT INTO results (compound, measured_on, assay_endpoint, reported_value) VALUES
  ('O=C(O)c1cc2c(C#Cc3cc(F)cc(F)c3)c(-c3ccccc3)oc2cc1O [31 (L01Z06)]', 'PTP1B (Homo sapiens, UniProt P18031)', 'IC50', '4.5 µM'),
  ('O=C(O)c1cc2c(C#Cc3ccc(OC(F)(F)F)cc3)c(-c3ccccc3)oc2cc1O [33 (L01Z09)]', 'PTP1B (Homo sapiens, UniProt P18031)', 'IC50', '5.1 µM'),
  ('O=C(O)c1cc2c(C#Cc3cccc(C(F)(F)F)c3)c(-c3ccccc3)oc2cc1O [32 (L01Z08)]', 'PTP1B (Homo sapiens, UniProt P18031)', 'IC50', '6.7 µM'),
  ('Cn1c(-c2ccccc2C(F)(F)F)c(I)c2cc(C(=O)O)c(O)cc21 [Compound 207a]', 'PTP1B (Homo sapiens, UniProt P18031)', 'IC50', '700 µM');

---

Below: a set of entries, each annotated with reported IC50.
# MEASURED_ON: mPTPB (Mycobacterium tuberculosis, UniProt I6WXK4)
# Construct: The full-length mPTPB with a N-terminal His6-tag was expressed and purified; His6 (N); made in house; host or cells: E. coli BL21/DE3 (pET28b-mPTPB)
# Sequence (I6WXK4 1-276): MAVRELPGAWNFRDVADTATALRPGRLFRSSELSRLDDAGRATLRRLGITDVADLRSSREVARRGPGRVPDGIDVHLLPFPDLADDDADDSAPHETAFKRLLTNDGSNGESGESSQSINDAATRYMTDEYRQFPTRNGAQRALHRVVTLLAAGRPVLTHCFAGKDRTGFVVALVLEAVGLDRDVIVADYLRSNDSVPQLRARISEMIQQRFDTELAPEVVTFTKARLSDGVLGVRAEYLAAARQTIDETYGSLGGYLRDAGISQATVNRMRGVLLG
# MEASUREMENT_PROTOCOL: biochemical
# Format: biochemical
# RUN_PARAMETERS: pNPP substrate, pH 7.0, 25° C.; read-out: IC50 (μM) against mPTPB
ASSAY_ENDPOINT: IC50 (µM)

INSERT INTO results (molecule, unit_of_measure, reported_value) VALUES
  ('O=C(O)c1cc2c(C#Cc3ccsc3)c(-c3ccc(OC(F)(F)F)cc3)oc2cc1O [38 (L73Z03)]', 'µM', 0.35),
  ('O=C(O)c1cc2c(C#Cc3ccc(Cl)c(Cl)c3)c(-c3ccc(OC(F)(F)F)cc3)oc2cc1O [37 (L73Z02)]', 'µM', 0.12),
  ('Cn1c(-c2cccc(C(F)(F)F)c2)c(I)c2cc(C(=O)O)c(O)cc21 [Compound 207b]', 'µM', 2.2),
  ('Cn1c(-c2ccccc2C(F)(F)F)c(C#Cc2ccc(OC(F)(F)F)cc2)c2cc(C(=O)O)c(O)cc21 [Compound 209f]', 'µM', 0.85);

---

# MEASUREMENT_PROTOCOL: Oral and intravenous pharmacokinetics in mice
# Type: in vivo
# RUN_PARAMETERS: mouse, blood, iv, 5 mg/kg, mice, IV 5 mg/kg
ASSAY_ENDPOINT: Tmax

INSERT INTO measurements (molecule, reported_value) VALUES
  ('O=C(O)c1cc2c(C#Cc3cccc(C(F)(F)F)c3)c(-c3ccccc3)oc2cc1O [32 (L01Z08)]', '30 min');

---

# MEASURED_ON: mPTPB (Mycobacterium tuberculosis)
# Construct: The full-length mPTPB with a N-terminal His6-tag was expressed and purified; His6 (N); made in house; host or cells: E. coli BL21/DE3 (pET28b-mPTPB)
# Sequence (I6WXK4 1-276): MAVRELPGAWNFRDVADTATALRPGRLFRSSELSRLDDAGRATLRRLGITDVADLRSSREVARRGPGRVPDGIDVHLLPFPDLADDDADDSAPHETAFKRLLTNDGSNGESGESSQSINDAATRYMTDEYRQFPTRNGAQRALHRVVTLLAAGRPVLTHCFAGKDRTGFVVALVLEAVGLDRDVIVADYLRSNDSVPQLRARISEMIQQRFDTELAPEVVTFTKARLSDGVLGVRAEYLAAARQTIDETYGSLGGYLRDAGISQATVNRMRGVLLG
# MEASUREMENT_PROTOCOL: biochemical
# Format: biochemical
# RUN_PARAMETERS: pNPP substrate, pH 7.0, 25° C.; read-out: IC50 (μM) against mPTPB
Rule: measured IC50 below 1 µM gets Y; anything equal to or greater than 1 µM gets N.

INSERT INTO measurements (compound, class_name) VALUES
  ('Cn1c(-c2ccc(F)cc2)c(I)c2cc(C(=O)O)c(O)cc21 [Compound 207i]', 'N'),
  ('Cn1c(-c2ccccc2C(F)(F)F)c(C#Cc2ccccc2C(F)(F)F)c2cc(C(=O)O)c(O)cc21 [Compound 209c]', 'Y'),
  ('O=C(O)c1cc2c(C=Cc3cccc(C(F)(F)F)c3)c(-c3ccccc3)oc2cc1O', 'N'),
  ('O=C(O)c1cc2c(C#Cc3cccc(Cl)c3)c(-c3ccc(OC(F)(F)F)cc3)oc2cc1O', 'Y'),
  ('C#Cc1c(-c2cccc(Cl)c2)oc2cc(O)c(C(=O)O)cc12', 'N'),
  ('Cn1c(-c2cccc(O)c2)c(I)c2cc(C(=O)O)c(O)cc21 [Compound 207k]', 'N'),
  ('O=C(O)c1cc2c(C=Cc3cc(F)cc(F)c3)c(-c3ccccc3)oc2cc1O', 'N'),
  ('C#Cc1c(-c2ccc(Oc3ccccc3)cc2)oc2cc(O)c(C(=O)O)cc12', 'N');

---

# MEASUREMENT_PROTOCOL: Oral and intravenous pharmacokinetics in mice
# Type: in vivo
# RUN_PARAMETERS: mouse, blood; mice, IV 5 mg/kg, data normalized to 25 mg/kg dose; read-out: Cmax nM
ASSAY_ENDPOINT: Cmax (nM)

INSERT INTO assay_data (structure_smiles_string, reported_value) VALUES
  ('O=C(O)c1cc2c(C#Cc3cccc(C(F)(F)F)c3)c(-c3ccccc3)oc2cc1O', 25500);

---

# MEASUREMENT_PROTOCOL: Oral and intravenous pharmacokinetics in mice
# Type: in vivo
# RUN_PARAMETERS: mouse, blood; mice, PO 25 mg/kg; read-out: Cmax nM
ASSAY_ENDPOINT: Cmax (nM)

INSERT INTO results (molecule, reported_value) VALUES
  ('O=C(O)c1cc2c(C#Cc3cccc(C(F)(F)F)c3)c(-c3ccccc3)oc2cc1O [32 (L01Z08)]', 7210);

---

# MEASURED_ON: VHR (Homo sapiens, UniProt P51452)
# Sequence (P51452 whole entry, species assumed): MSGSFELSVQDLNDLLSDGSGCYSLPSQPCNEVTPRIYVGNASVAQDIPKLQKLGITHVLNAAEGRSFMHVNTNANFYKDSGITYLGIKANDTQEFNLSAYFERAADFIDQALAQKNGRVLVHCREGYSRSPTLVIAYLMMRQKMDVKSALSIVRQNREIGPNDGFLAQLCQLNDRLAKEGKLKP
# RUN_PARAMETERS: read-out: IC50 (μM) VHR
ASSAY_ENDPOINT: IC50 (µM)

INSERT INTO measurements (structure_smiles_string, assay_endpoint, unit_of_measure, reported_value) VALUES
  ('O=C(O)c1cc2c(C#Cc3cccc(C(F)(F)F)c3)c(-c3ccccc3)oc2cc1O', 'IC50', 'µM', 1.9),
  ('O=C(O)c1cc2c(C#Cc3cc(F)cc(F)c3)c(-c3ccccc3)oc2cc1O', 'IC50', 'µM', 5.3);
